test system: SARS-CoV-2 NSP3 macrodomain (Mac1) (Severe acute respiratory syndrome coronavirus 2, UniProt P0DTD1)
Assay type: binding
condition label: ligand conformations modeled in the crystal structure
Recorded Total number of conformations values for a group of compounds are listed next.
Answer as a number with no unit attached.

Cn1cc(CC(CO)Nc2ncnc3[nH]ccc23)cn1 (stereo not shown)	1
OCC1CC2(CCCC2)CN1c1ncnc2[nH]ccc12 (stereo not shown)	1
CCC(CC)(CO)Nc1ncnc2[nH]ccc12	2

Read the next record carefully.
Output Total number of conformations of OCC(CC(O)c1ccccc1)Nc1ncnc2[nH]ccc12 (stereo not shown)
1

====

test system: SARS-CoV-2 NSP3 macrodomain (Mac1) (Severe acute respiratory syndrome coronavirus 2)
Type: binding
condition label: crystallographic refinement
Lab note: cut-off is 50%. Strictly less in Refined ligand occupancy (%) is Y. Exactly 50% or more is N.

CNc1ccc(NS(=O)(=O)c2cc3cccc(C)c3s2)cn1	N
CC(C)C1CCCN1c1ncnc2[nH]ccc12 (centres unmarked)	Y
CC(O)C1CCCN1c1ncnc2[nH]ccc12 (centres unmarked)	N

Refined ligand occupancy (%) strictly < 50% for this compound? OC1(CNc2ncnc3[nH]ccc23)CCOCC1
Y

Refined ligand occupancy (%) strictly < 50% for this compound? OC1(CNc2ncnc3[nH]ccc23)CCCSC1 (centres unmarked)
Y

Refined ligand occupancy (%) strictly < 50% for this compound? O=C1CCc2cc(C(=O)N3CC(C(=O)O)CCC34CCCC4)c(F)cc2N1 (centres unmarked)
Y

Refined ligand occupancy (%) strictly < 50% for this compound? OC1(CNc2ncnc3[nH]ccc23)CCCC(C(F)(F)F)C1 (centres unmarked)
Y

Refined ligand occupancy (%) strictly < 50% for this compound? CC(C)n1nnnc1SCc1c(C(=O)O)sc2cccc(F)c12
N
